Provenance of the data: paper PMC10724265

- testTarget: LC3B (UniProt Q9GZQ8 1-120)
- assayProtocol: ITC
measuredQuantity: pKd
pKd is defined as minus the log10 of a concentration measured in mol/L.

Qu. Which pKd value belongs to LDTDAEGDDFELLDQSELSQ (synthetic peptide, non-phosphorylated; the exact peptide limits are not printed in the text (figure/supplement); limits taken as the UniProt LIR motif 445-450 plus 7 flanking residues on each side; terminal chemistry unknown) [synthetic FAM134C-LIR peptide, non-phosphorylated form] ?
Ans. 5.99
